test system: weedy Eleusine indica; assay: Post-emergence herbicidal efficacy of L-glufosinate, other herbicides and their combinations in greenhouse trials (observed control vs Colby expected); type: in vivo; conditions: Table 1; 14 DAA; dose a.i. g/h: L-glufosinate 150, oxyfluorfen 107.1, imazethapyr 75, carfentrazone 7.5
Each entry below carries its recorded Control %.
property label: Control % (%)

{"columns": ["compound", "target or system", "property label", "observed measurement"],
 "data": [
  ["CCc1cnc(C2=NC(C)(C(C)C)C(=O)N2)c(C(=O)O)c1 (stereo not shown)", "weedy Eleusine indica", "Control %", 12],
  ["Cc1nn(-c2cc(CC(Cl)C(=O)O)c(Cl)cc2F)c(=O)n1C(F)F (stereo not shown)", "weedy Eleusine indica", "Control %", 12.3],
  ["CCOc1cc(Oc2ccc(C(F)(F)F)cc2Cl)ccc1[N+](=O)[O-]", "weedy Eleusine indica", "Control %", 40],
  ["CP(=O)(O)CC[C@H](N)C(=O)O [L-glufosinate]", "weedy Eleusine indica", "Control %", 41.3]
]}
